Values from ChEMBL document CHEMBL4346679

# Tested on: Leishmania amazonensis
# Method description: Antileishmanial activity against promastigote stage of Leishmania amazonensis MPRO/BR/1972/M1841-LV-79 assessed as parasite growth inhibition after 72 hrs by MTT assay
# Assay type: functional, organism-based
# Assay conditions: MPRO/BR/1972/M1841-LV-79, 72 h
pIC50: −log10 of the molar value.

{"Mol": "C[C@@H]1[C@H](O)[C@@H](C)/C=C/C=C/C=C/C=C/C=C/C=C/C=C/[C@H](O[C@@H]2O[C@H](C)[C@@H](O)[C@H](N)[C@@H]2O)C[C@@H]2O[C@](O)(C[C@@H](O)C[C@@H](O)[C@H](O)CC[C@@H](O)C[C@@H](O)CC(=O)O[C@H]1C)C[C@H](O)[C@H]2C(=O)O", "pIC50": 5.49}
{"Mol": "O=C(/N=C(/NCc1ccccc1)Nc1ccc(C(F)(F)F)cc1)c1ccccc1", "pIC50": 5.17}
{"Mol": "COc1ccc(N/C(=N\\C(=O)c2ccccc2)NCc2ccccc2)cc1", "pIC50": 4.60}
{"Mol": "CC(C)(C)c1ccc(N/C(=N\\C(=O)c2ccccc2)NCc2ccccc2)cc1", "pIC50": 4.59}
{"Mol": "O=C(/N=C(/NCc1ccccc1)Nc1ccc(F)cc1)c1ccccc1", "pIC50": 4.66}
{"Mol": "O=C(/N=C(/NCc1ccccc1)Nc1ccccc1)c1ccccc1", "pIC50": 4.65}
{"Mol": "N=C(N)c1ccc(OCCCCCOc2ccc(C(=N)N)cc2)cc1", "pIC50": 5.12}
{"Mol": "O=C(/N=C(/NCc1ccccc1)Nc1ccc(Cl)cc1)c1ccccc1", "pIC50": 4.71}
{"Mol": "O=C(/N=C(/NCc1ccccc1)Nc1ccc([N+](=O)[O-])cc1)c1ccccc1", "pIC50": 4.94}
{"Mol": "O=C(/N=C(/NCc1ccccc1)Nc1ccc(I)cc1)c1ccccc1", "pIC50": 4.80}
{"Mol": "Cc1ccc(N/C(=N\\C(=O)c2ccccc2)NCc2ccccc2)cc1", "pIC50": 4.68}
{"Mol": "O=C(/N=C(/NCc1ccccc1)Nc1ccc(Br)cc1)c1ccccc1", "pIC50": 4.71}

---

# Method description: Cytotoxicity against mouse peritoneal macrophages assessed as decrease in cell viability after 24 hrs by MTT assay
# Assay type: cell-based, Peritoneal macrophage

{"Mol": "O=C(/N=C(/NCc1ccccc1)Nc1ccccc1)c1ccccc1", "CC50 at 24 h, µM": 35.9}
{"Mol": "O=C(/N=C(/NCc1ccccc1)Nc1ccc(I)cc1)c1ccccc1", "CC50 at 24 h, µM": 619}
{"Mol": "N=C(N)c1ccc(OCCCCCOc2ccc(C(=N)N)cc2)cc1", "CC50 at 24 h, µM": 35.7}
{"Mol": "O=C(/N=C(/NCc1ccccc1)Nc1ccc(Br)cc1)c1ccccc1", "CC50 at 24 h, µM": 738}
{"Mol": "O=C(/N=C(/NCc1ccccc1)Nc1ccc([N+](=O)[O-])cc1)c1ccccc1", "CC50 at 24 h, µM": 802}
{"Mol": "C[C@@H]1[C@H](O)[C@@H](C)/C=C/C=C/C=C/C=C/C=C/C=C/C=C/[C@H](O[C@@H]2O[C@H](C)[C@@H](O)[C@H](N)[C@@H]2O)C[C@@H]2O[C@](O)(C[C@@H](O)C[C@@H](O)[C@H](O)CC[C@@H](O)C[C@@H](O)CC(=O)O[C@H]1C)C[C@H](O)[C@H]2C(=O)O", "CC50 at 24 h, µM": 23.1}
{"Mol": "Cc1ccc(N/C(=N\\C(=O)c2ccccc2)NCc2ccccc2)cc1", "CC50 at 24 h, µM": 876}
{"Mol": "O=C(/N=C(/NCc1ccccc1)Nc1ccc(C(F)(F)F)cc1)c1ccccc1", "CC50 at 24 h, µM": 18.6}
{"Mol": "O=C(/N=C(/NCc1ccccc1)Nc1ccc(Cl)cc1)c1ccccc1", "CC50 at 24 h, µM": 827}
{"Mol": "COc1ccc(N/C(=N\\C(=O)c2ccccc2)NCc2ccccc2)cc1", "CC50 at 24 h, µM": 837}
{"Mol": "CC(C)(C)c1ccc(N/C(=N\\C(=O)c2ccccc2)NCc2ccccc2)cc1", "CC50 at 24 h, µM": 1120}
{"Mol": "O=C(/N=C(/NCc1ccccc1)Nc1ccc(F)cc1)c1ccccc1", "CC50 at 24 h, µM": 866}
